- System: P. stuartii CMX 640
- TEST DETAILS: in vitro antibacterial activity (MIC), conventional agar dilution
- Format: cell-based
- PROTOCOL CONDITIONS: Providencia stuartii, CMX640, brain-heart infusion agar, inoculum 10^4 /plate
MEASURED PROPERTY: MIC (µg/mL)

Example entries begin here.
| COMPOUND | MIC (µg/mL) |
| --- | --- |
| CCn1c2s[nH]c(=O)c2c(=O)c2cc(F)c(N3CCNC(C)C3)c(F)c21 (stereo not drawn) [46(xx)] | 3.1 |
| Cl.NC1CCN(c2cc3c(cc2F)c(=O)c2c(=O)[nH]sc2n3C2CC2)C1 (stereo not drawn) [47(b)] | 0.39 |
| CCn1c2s[nH]c(=O)c2c(=O)c2cc(F)c(N3CCNCC3)c(F)c21 [46(dd)] | 0.78 |
| CCn1c2cc(N3CCN(C)CC3)c(F)cc2c(=O)c2c(=O)[nH]sc21 [46(l)] | 1.56 |
| CC1CN(c2cc3c(cc2F)c(=O)c2c(=O)[nH]sc2n3-c2ccc(F)cc2)CCN1 (stereo not drawn) [46(b)] | 6.2 |
| CN1CCN(c2cc3c(cc2F)c(=O)c2c(=O)[nH]sc2n3-c2ccc(F)cc2)CC1 [46(a)] | 12.5 |
| CCn1c2s[nH]c(=O)c2c(=O)c2cc(F)c(N3CCC(N)C3)c(F)c21 (stereo not drawn) [47(g)] | 0.78 |
| O=c1[nH]sc2c1c(=O)c1cc(F)c(N3CCNCC3)cc1n2C1CC1 [46(zz)] | 0.2 |

a = O=c1[nH]sc2c1c(=O)c1cc(F)c(N3CCC(O)C3)cc1n2C1CC1 (stereo not drawn) [46(ss)]
b = CCn1c2cc(N3CCNC(C)C3)c(F)cc2c(=O)c2c(=O)[nH]sc21 (stereo not drawn) [46(ww)]
Query: Look at a and b . Which one has the lower recorded MIC number? Could you answer with the label of the item you picked?
Reply: a
(a: 0.78 µg/mL, b: 1.56 µg/mL)

P = CCn1c2s[nH]c(=O)c2c(=O)c2cc(F)c(N3CCN(C)CC3)c(F)c21 [46(cc)]
Q = CC1CN(c2cc3c(cc2F)c(=O)c2c(=O)[nH]sc2n3-c2ccc(F)cc2F)CC1N (stereo not drawn) [46(g)]
Query: Look at P and Q . Which one has the lower recorded MIC number? Could you answer with the label of the item you picked?
Reply: Q
(Q: 0.39 µg/mL, P: 3.1 µg/mL)
